The reported measurements were obtained from patent US20050070480A1.

Could you please report measured Survival rate % for the items listed next?
- System: LPS-treated rats
- assay-remarks: Survival in a rat model for disseminated intravascular coagulation
- Format: in vivo
- experimental-context: rats, 30 mg/kg LPS i.v.; 0.75 mg/kg bolus + infusion; 4 hours
Non-standard residues stand in square brackets, D forms with d. Residues, ends and D or L forms follow the SMILES beside them. dNMeChg = CN[C@@H](C(=O)O)C1CCCCC1; Aze = O=C(O)[C@@H]1CCN1
Write the value in % as a bare number.

**Query** Returns the measured Survival rate % for the input compound. Input: CN[C@H](CC1CCCCCC1)C(=O)N1CCC[C@H]1C(=O)N[C@H](C=O)CCCNC(=N)N [Compound 2]
**Result** 86

**Query** Record: N=C(N)NCCC[C@@H](C=O)NC(=O)[C@@H]1CCCN1C(=O)[C@H](O)CC1CCCCCC1 [Compound 3]
**Result** 100

**Query** Record: CN[C@@H](C(=O)N1CC[C@H]1C(=O)N[C@H](C=O)CCCNC(=N)N)C1CCCCC1 [Compound 4] (H-[dNMeChg]-[Aze]-Arg-aldehyde)
**Result** 100

**Query** Record: CCOC(=O)N[C@H](CC1CCCCCC1)C(=O)N1CCC[C@H]1C(=O)N[C@H](C=O)CCCNC(=N)N [Compound 1]
**Result** 100

**Query** Record: CN[C@H](Cc1ccccc1)C(=O)N1CCC[C@H]1C(=O)N[C@H](C=O)CCCN=C(N)N [C, D-MePhe-Pro-Arg-H, reference compound]
**Result** 93

---

- Tested on: endotoxin-treated rabbits
- Type: in vivo, rabbit
- experimental-context: endotoxin-treated rabbits, 0.5 mg/kg/h infusion, 2 hrs
observation-type: Lethality %, 2 hrs (%)
Write the value in % as a bare number.

**Query** Returns the measured Lethality %, 2 hrs for the input compound. Input: CCOC(=O)N[C@H](CC1CCCCCC1)C(=O)N1CCC[C@H]1C(=O)N[C@H](C=O)CCCNC(=N)N [Compound 1]
**Result** 0

**Query** Record: N=C(N)NCCC[C@@H](C=O)NC(=O)[C@@H]1CCCN1C(=O)C(O)CCc1ccccc1 (stereo partly drawn) [Compound C3, hPla-Pro-Arg-H]
**Result** 6

**Query** Record: N=C(N)NCCC[C@@H](C=O)NC(=O)[C@@H]1CCCN1C(=O)[C@H](O)C1CCCCCC1 [Compound C1, reference compound]
**Result** 0

**Query** Record: CN[C@H](Cc1ccccc1)C(=O)N1CCC[C@H]1C(=O)N[C@H](C=O)CCCN=C(N)N [C, D-MePhe-Pro-Arg-H, reference compound]
**Result** 7

---

- tested-on: clot-bound thrombin (Homo sapiens, UniProt P00734)
- assay-remarks: Enzyme inhibition in platelet-rich plasma clots, chromogenic substrate Tos-Gly-Pro-Arg-pNA
- Type: biochemical
Non-standard residues stand in square brackets, D forms with d. Residues, ends and D or L forms follow the SMILES beside them. dNMeChg = CN[C@@H](C(=O)O)C1CCCCC1; Aze = O=C(O)[C@@H]1CCN1
observation-type: Inhibition of clot-bound thrombin compared with Efegatran (in words)

compound	observed-result
CCOC(=O)N[C@H](CC1CCCCCC1)C(=O)N1CCC[C@H]1C(=O)N[C@H](C=O)CCCNC(=N)N [Compound 1]	surpass Efegatran
CN[C@H](CC1CCCCCC1)C(=O)N1CCC[C@H]1C(=O)N[C@H](C=O)CCCNC(=N)N [Compound 2]	surpass Efegatran
CN[C@@H](C(=O)N1CC[C@H]1C(=O)N[C@H](C=O)CCCNC(=N)N)C1CCCCC1 [Compound 4] (H-[dNMeChg]-[Aze]-Arg-aldehyde)	surpass Efegatran
N=C(N)NCCC[C@@H](C=O)NC(=O)[C@@H]1CCCN1C(=O)[C@H](O)CC1CCCCCC1 [Compound 3]	surpass Efegatran

---

- tested-on: clot-bound thrombin (Homo sapiens)
- assay-remarks: Enzyme inhibition in platelet-rich plasma clots, chromogenic substrate Tos-Gly-Pro-Arg-pNA
- Type: biochemical
- experimental-context: clot-bound thrombin, platelet-rich plasma clot
Non-standard residues stand in square brackets, D forms with d. Residues, ends and D or L forms follow the SMILES beside them. dNMeChg = CN[C@@H](C(=O)O)C1CCCCC1; Aze = O=C(O)[C@@H]1CCN1
observation-type: pIC50
pIC50 is a log-scale quantity: -log10 of the concentration expressed in molar.

**Query** Returns the measured pIC50 for the input compound. Input: CN[C@@H](C(=O)N1CC[C@H]1C(=O)N[C@H](C=O)CCCNC(=N)N)C1CCCCC1 [Compound 4] (H-[dNMeChg]-[Aze]-Arg-aldehyde)
**Result** 6.61

**Query** Record: N=C(N)NCCC[C@@H](C=O)NC(=O)[C@@H]1CCCN1C(=O)[C@H](O)C1CCCCCC1 [Compound C1, reference compound]
**Result** 6.28

**Query** Record: CN[C@H](Cc1ccccc1)C(=O)N1CCC[C@H]1C(=O)N[C@H](C=O)CCCN=C(N)N [C, D-MePhe-Pro-Arg-H, reference compound]
**Result** 6.43

**Query** Record: CCOC(=O)N[C@H](CC1CCCCCC1)C(=O)N1CCC[C@H]1C(=O)N[C@H](C=O)CCCNC(=N)N [Compound 1]
**Result** 6.99

**Query** Record: N=C(N)NCCC[C@@H](C=O)NC(=O)[C@@H]1CCCN1C(=O)[C@H](O)CC1CCCCCC1 [Compound 3]
**Result** 7.02

**Query** Record: CN[C@H](CC1CCCCCC1)C(=O)N1CCC[C@H]1C(=O)N[C@H](C=O)CCCNC(=N)N [Compound 2]
**Result** 7.03

---

- Test system: citrated human plasma (exogenous thrombin)
- assay-remarks: Thrombin time (TT) plasma clotting assay
- Format: biochemical
- experimental-context: thrombin 2.5 NIH U/ml
- Experimental: The inhibitory effect on plasma coagulation was evaluated in the thrombin time (TT), activated partial thromboplastin time (APTT) and prothrombin time (PT) assays by using citrated human plasma as substrate [Bagdy, D. et. al.: Thromb. Haemostas. 67, 325 (1992)]. The TT assay measures the inhibition of a single step, the coagulation of fibrinogen on the action of exogenous thrombin (final concentration 2.5 NIH U/ml). Clotting of plasma in the APTT and PT assays was induced by recalcification. […]
Non-standard residues stand in square brackets, D forms with d. Residues, ends and D or L forms follow the SMILES beside them. dNMeChg = CN[C@@H](C(=O)O)C1CCCCC1; Aze = O=C(O)[C@@H]1CCN1
observation-type: CT2 TT (concentration required for doubling the clotting time) (nM)
Write the value in nM as a bare number.

**Query** Returns the measured CT2 TT (concentration required for doubling the clotting time) for the input molecule. Input: CN[C@@H](C(=O)N1CC[C@H]1C(=O)N[C@H](C=O)CCCNC(=N)N)C1CCCCC1 [Compound 4] (H-[dNMeChg]-[Aze]-Arg-aldehyde)
**Result** 101

**Query** Record: `CN[C@H](CC1CCCCCC1)C(=O)N1CCC[C@H]1C(=O)N[C@H](C=O)CCCNC(=N)N`
**Result** 118

**Query** Record: `N=C(N)NCCC[C@@H](C=O)NC(=O)[C@@H]1CCCN1C(=O)[C@H](O)CC1CCCCCC1`
**Result** 86

**Query** Record: N=C(N)NCCC[C@@H](C=O)NC(=O)[C@@H]1CCCN1C(=O)[C@H](O)C1CCCCCC1 [Compound C1, reference compound]
**Result** 120

**Query** Record: CN[C@H](Cc1ccccc1)C(=O)N1CCC[C@H]1C(=O)N[C@H](C=O)CCCN=C(N)N [C, D-MePhe-Pro-Arg-H, reference compound]
**Result** 87

**Query** Record: `CCOC(=O)N[C@H](CC1CCCCCC1)C(=O)N1CCC[C@H]1C(=O)N[C@H](C=O)CCCNC(=N)N`
**Result** 147

---

- tested-on: urokinase (UK) (Homo sapiens)
- assay-remarks: Fibrin plate assay, urokinase
- Format: biochemical
- experimental-context: reduction of lysed area to 50% of control, urokinase, read-out: LA50 UK
Non-standard residues stand in square brackets, D forms with d. Residues, ends and D or L forms follow the SMILES beside them. dNMeChg = CN[C@@H](C(=O)O)C1CCCCC1; Aze = O=C(O)[C@@H]1CCN1
observation-type: pIC50
pIC50 is a log-scale quantity: -log10 of the concentration expressed in molar.

**Query** Provide value of pIC50 for this record tested with urokinase (UK) (Homo sapiens): N=C(N)NCCC[C@@H](C=O)NC(=O)[C@@H]1CCCN1C(=O)[C@H](O)C1CCCCCC1 [Compound C1, reference compound]
**Result** 3.92

**Query** Record: CN[C@H](Cc1ccccc1)C(=O)N1CCC[C@H]1C(=O)N[C@H](C=O)CCCN=C(N)N [C, D-MePhe-Pro-Arg-H, reference compound]
**Result** 4.09

**Query** Record: CN[C@@H](C(=O)N1CC[C@H]1C(=O)N[C@H](C=O)CCCNC(=N)N)C1CCCCC1 [Compound 4] (H-[dNMeChg]-[Aze]-Arg-aldehyde)
**Result** 4.80

**Query** Record: `CN[C@H](CC1CCCCCC1)C(=O)N1CCC[C@H]1C(=O)N[C@H](C=O)CCCNC(=N)N`
**Result** 4.74

**Query** Record: `N=C(N)NCCC[C@@H](C=O)NC(=O)[C@@H]1CCCN1C(=O)[C@H](O)CC1CCCCCC1`
**Result** 4.07

**Query** Record: `CCOC(=O)N[C@H](CC1CCCCCC1)C(=O)N1CCC[C@H]1C(=O)N[C@H](C=O)CCCNC(=N)N`
**Result** 4.85
